Tested on: Norovirus
experiment_description: Antiviral activity against Norovirus infected in human HG23 cells
Type: functional
condition_description: read-out: ED50 (the source's name)
pEC50: −log10 of the molar value.
measured_endpoint: pEC50

Below, 6 molecules whose answers are already recorded.
INSERT INTO measurements (molecule, measured_endpoint, endpoint_value) VALUES
  ('CC(C)NC(=O)C(=O)[C@H](CC1CCNC1=O)NC(=O)[C@H](Cc1ccccc1)NC(=O)OCc1ccccc1 (some centres not stated)', 'pEC50', 5.38),
  ('CC(C)C[C@H](NC(=O)OCc1ccccc1)C(=O)N[C@@H](CC1CCNC1=O)C(=O)c1ncco1 (some centres not stated)', 'pEC50', 6.05),
  ('CC(C)C[C@H](NC(=O)OCc1ccccc1)C(=O)N[C@@H](CC1CCNC1=O)C(O)c1nccs1 (some centres not stated)', 'pEC50', 5.37),
  ('CCCCNC(=O)C(=O)[C@H](CC1CCNC1=O)NC(=O)[C@H](CC(C)C)NC(=O)OCc1ccccc1 (some centres not stated)', 'pEC50', 5.89),
  ('CC(C)C[C@H](NC(=O)OCc1ccccc1)C(=O)N[C@@H](CC1CCNC1=O)C(O)C(=O)NC(C)C (some centres not stated)', 'pEC50', 5.39),
  ('CCOC(=O)CNC(=O)C(=O)[C@H](CC1CCNC1=O)NC(=O)[C@H](CC(C)C)NC(=O)OCc1ccccc1 (some centres not stated)', 'pEC50', 6.10);

1: CC(C)NC(=O)C(O)[C@H](CC1CCNC1=O)NC(=O)[C@H](Cc1ccccc1)NC(=O)OCc1ccccc1 (some centres not stated)
2: CC(C)C[C@H](NC(=O)OCc1ccccc1)C(=O)N[C@@H](CC1CCNC1=O)C(=O)C(=O)NC1CCCCC1 (some centres not stated)
**Query** Pick one: 1 or 2 . Which has the bigger pEC50 number? // return label of chosen record
**Result** 2

These entries and their values trace back to ChEMBL document CHEMBL2046291.
